- Test Name: Lipophilicity, log D of the compound by HPLC analysis
- Assay type: physicochemical
- Particulars: read-out: logD
Readout Name: logD
Format: numeric value only, no unit, no commentary.

Molecule: Cc1c(OC(F)F)ccc2c1C(=O)N(Cc1ccccc1-c1ccccc1)C2C(=O)NC(C)(C)C (racemic)
logD: 5.9
//
Molecule: Cc1c(O)ccc2c1C(=O)N(Cc1ccccc1-c1ccccc1)C2C(=O)NC(C)(C)C (racemic)
logD: 4.4
//
Molecule: CC(CN1C(=O)c2ccccc2C1C(=O)NCC(F)F)c1ccc(Cl)cc1 (racemic)
logD: 3.7

Answer with the recorded logD for the molecule listed here: Cc1c(OCF)ccc2c1C(=O)N(Cc1ccccc1-c1ccccc1)C2C(=O)NC(C)(C)C (racemic)
5.6

Answer with the recorded logD for the molecule listed here: Cc1c(OS(C)(=O)=O)ccc2c1C(=O)N(Cc1ccccc1-c1ccccc1)C2C(=O)NC(C)(C)C (racemic)
5.1

Answer with the recorded logD for the molecule listed here: CC(C)(C)NC(=O)C1c2ccccc2C(=O)N1Cc1ccccc1-c1ccc(F)c(F)c1 (stereo in doubt; 16E1)
5

Answer with the recorded logD for the molecule listed here: CC(C)(C)NC(=O)C1c2ccccc2C(=O)N1Cc1ccc(F)cc1-c1ccccc1 (single isomer, unassigned; enantiomer 1)
5.2

Answer with the recorded logD for the molecule listed here: CC(C)(C)NC(=O)C1c2cc(C#N)ccc2C(=O)N1Cc1ccccc1-c1ccccc1 (racemic)
4.7

Answer with the recorded logD for the molecule listed here: CC(C)(C)NC(=O)C1c2ccc(O)cc2C(=O)N1Cc1ccccc1-c1ccccc1 (racemic)
4
